molecular target: T1, Recombinant EBOV GP without transmembrane domain (Zaire ebolavirus, strain of GP not …, UniProt Q05320); test: SPR; details: both partners purified
T1 construct: also called recombinant GP; EBOV rGPdTM; source: bought: IBT Bioservices
T1 sequence (Q05320 whole entry, looked up, the tested form may be a part): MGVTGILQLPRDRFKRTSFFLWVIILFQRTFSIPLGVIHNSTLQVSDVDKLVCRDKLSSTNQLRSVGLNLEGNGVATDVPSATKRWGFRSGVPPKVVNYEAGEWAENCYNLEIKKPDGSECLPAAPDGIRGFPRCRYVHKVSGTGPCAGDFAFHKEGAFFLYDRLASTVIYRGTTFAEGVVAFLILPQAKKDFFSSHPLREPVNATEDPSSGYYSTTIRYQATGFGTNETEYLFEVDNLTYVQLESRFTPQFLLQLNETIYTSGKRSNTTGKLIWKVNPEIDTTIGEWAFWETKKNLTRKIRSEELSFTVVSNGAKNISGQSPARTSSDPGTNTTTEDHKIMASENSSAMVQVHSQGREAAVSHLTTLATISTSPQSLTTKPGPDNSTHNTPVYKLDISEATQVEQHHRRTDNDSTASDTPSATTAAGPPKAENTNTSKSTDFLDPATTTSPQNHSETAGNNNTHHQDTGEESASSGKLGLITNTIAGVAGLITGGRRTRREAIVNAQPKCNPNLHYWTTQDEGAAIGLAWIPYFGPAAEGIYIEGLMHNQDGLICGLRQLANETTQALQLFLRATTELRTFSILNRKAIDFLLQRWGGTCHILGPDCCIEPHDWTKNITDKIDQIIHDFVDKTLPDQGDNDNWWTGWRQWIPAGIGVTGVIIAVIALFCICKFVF
binders and their reported log10 Kd
Please keep in mind that the values are log10 of Kd expressed in nM.

Consider the following illustrative entries.
[[record]]
binder = "EBOV-GP-E7 (VHH) VHH: EVQLQASGGGLVQPRGSLRLSCAASGSIFSINAMGWYRQTPEKQRELVATISSSGSTKYGDSVKGRFTISRDNAKNTVYLQMNSLKPEDTAVYYCNTQTAGLVADWGTSHYDYWGQGVQVTVS"
outcome_measure = "log10 Kd"
measured = 1.53

[[record]]
binder = "EBOV-GP-C12 (VHH) VHH: EVQLQASGGGLVQPGGSLRLSCTASGSIFSINAMGWYRQTPRKERELVAAISEGGSTKYGDSVKGRFTISRDFAKNTQMVYLQMNSLKAEDTAVYYCKAQTEGPIADWGTSQYEYWGQGTQVTVS"
outcome_measure = "log10 Kd"
measured = 1.43

[[record]]
binder = "EBOV-GP-B5 (VHH) VHH: EVQLQASGGGLVQAGGSLRLSCTASLRAFSTYTMGWFRQAPGKEREFVAASNWRGTDFHDSVKGRFIISRDNTKKTVDLQMNSLKPEDTAIYYCAADGSTWLKRSDYSYWGQGTQVTVS"
outcome_measure = "log10 Kd"
measured = 1.04

[[record]]
binder = "EBOV-GP-D1 (VHH) VHH: EVQLQASGGGSVPPGGSLRLSCTASLRAFSTYTMGWFRQAPGKEREFVAASNWRGTDFHDSVRGRFIISRDNTEKTVDLQMNSLKPEDTAIYYCAADGSTWLKRSDYSYWGQGTQVTVS"
outcome_measure = "log10 Kd"
measured = 1.04

[[record]]
binder = "EBOV-GP-A8 (VHH, also called Bt-EBOV-GP-A8) VHH: EVQLQASGGGLAQAGGSLQLSCAAPGRPVRTYTMGWFRQAPGKEREFVAANNWRGTRYAGSVRGRFSISRDNSKNTVYLQMNSLKPEDTAVYYCACAVTADLLLSGNYFRGDDYDYWGQGTQVTVS"
outcome_measure = "log10 Kd"
measured = 0.36


The binder listed as EBOV-GP-G6 (VHH) VHH: DVQLQASGGGLVQAGGSLRISCAASGGALSDYNMGWFRQAPGKEREFVAVVTWSGGSTRYADSVNGRFTISRDNAKNTVYLQMNSLKPEDTAVYYCAAAPLTPFQSLGDMKAYNYWGQGTQVTVS has a reported log10 Kd of 0.30
